- target-under-test: T1, cynomolgus monkey BDCA2 (full-length, cell surface, E73 SNP form) (cynomolgus monkey, UniProt Q8WTT0 1-213 (human entry))
- T1 construct: also called cyno BDCA2; surface cynomolgus monkey BDCA2
- T1 chain: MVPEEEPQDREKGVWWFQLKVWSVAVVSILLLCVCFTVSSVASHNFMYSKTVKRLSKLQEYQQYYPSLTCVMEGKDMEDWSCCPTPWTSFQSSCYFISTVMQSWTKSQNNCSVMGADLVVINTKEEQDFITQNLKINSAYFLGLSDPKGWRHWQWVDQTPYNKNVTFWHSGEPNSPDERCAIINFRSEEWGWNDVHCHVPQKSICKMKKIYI
- test-details: direct binding FACS, conditioned medium on CHO cells co-expressing BDCA2 and FcεRIγ
measured-metric: binding result

hu24F4 H6/L2 (antibody, V domains shown, Humanized variant, human IgG1/kappa, conditioned medium of 293E cells; also called H6 series of hu24F4) VH: DVQLVESGGGLVKPGGSLRLSCAASGFTFSTYTMSWVRQAPGKGLEWVATISGGNNYGYSYPDSVKGRFTISRDNAKNSLYLQMNSLRAEDTAVYYCTRDIYYNYGAWFAYWGQGTLVTVSS VL: DIQLTQSPSSLSVSVGDRATISCKASQSVDYDGDSYMNWYQQKPGKAPKLLIYAASTLESGVPSRFSGSGSGTDFTLTISSVQPEDFATYYCQQSNEDPRTFGQGTKVEIK	binds
